Taken from PubChem BioAssay (NCI).

Tested on: BT-549 breast
ASSAY_DETAILS: NCI tumour cell line growth inhibition, 48 h
Exercise: state measured TGI for each of the compounds provided.
Answers are plain numbers, in µM.

Consider the following illustrative entries.
> print(dat)
                                   compound  unit.of.measure  measurement
1  COc1ccc2c(c1)OC(N)=C(C#N)C2c1cc(OC)c(OC)c(OC)c1 (stereo unspecified)               µM       0.0836
2  Oc1ccc(Cl)cc1C(c1cc(Cl)ccc1O)C(Cl)(Cl)Cl               µM         4.71

For each of the items listed, what is its TGI?
1. Cc1cc(=O)oc2ccc(OC/C=C3\CCC(=O)O3)cc12
2. O=[N+]([O-])C(=C/c1ccccc1)/C(=C\c1ccccc1)[N+](=O)[O-]

Result string:
1: 23.4; 2: 31.4
